# Test system: CD34+ progenitors cultured with SCF and TPO
# testMethodNotes: Viable CD34+ progenitors at early stage of megakaryocytic differentiation, Trypan blue exclusion
# Type: cell-based
# reportedConditions: Homo sapiens, 48 hours of treatment, read-out: IC50, decrease in number of viable cells
pIC50: −log10 of the molar value.
reportedProperty: pIC50

Lab note: need pIC50 with CD34+ progenitors cultured with SCF and TPO for entry CC(C)(C)C[C@@H]1N[C@@H](C(=O)N[C@H]2CC[C@H](O)CC2)[C@H](c2cccc(Cl)c2F)[C@]12C(=O)Nc1cc(Cl)ccc12 [SAR405838] , please look it up.
~5.82

---

# Test system: BFU-E (Burst Forming Unit-Erythroid) progenitors from CD34+ cells
# testMethodNotes: Colony assay in methylcellulose, BFU-E
# Type: cell-based, human
# reportedConditions: Homo sapiens; CD34+ cells seeded in methylcellulose in the presence of compound; compared to untreated control; read-out: dose inducing a 50% reduction of BFU-E numbers
pIC50: −log10 of the molar value.
reportedProperty: pIC50

Lab note: need pIC50 with BFU-E (Burst Forming Unit-Erythroid) progenitors from CD34+ cells for entry CC(C)(C)C[C@@H]1N[C@@H](C(=O)N[C@H]2CC[C@H](O)CC2)[C@H](c2cccc(Cl)c2F)[C@]12C(=O)Nc1cc(Cl)ccc12 , please look it up.
6.00 to 6.30
